These measurements were taken from the Deep4Chem optical property database.

test: solvent given as SMILES; conditions: in CC#N
Output 1 for records whose emission maximum is lower than 400 nm, -1 for records at or above 400 nm.

| Molecule | Discrete Label |
| --- | --- |
| CC1=N/C(=C\c2ccccc2N)C(=O)N1C | -1 |
| CC(C)CCCCN1CCc2c1ccc1c3c(ccc21)CCCC3=O | -1 |
| NC(=O)Cc1cccc2ccccc12 | 1 |
| Brc1ccc(-c2pc3ccccc3s2)cc1 (stereo unspecified) | -1 |
| CC1=[N+]2C(=C(c3ccc(N4CCCCC4)cc3)c3ccc(C)n3[B-]2(F)F)C=C1 | -1 |

* * *

assay: solvent given as SMILES; settings: in CCOC(C)=O
Output label 1 for records whose emission maximum is lower than 500 nm, label 0 for records at or above 500 nm.

| Test Smiles | Discrete Label |
| --- | --- |
| COc1nc(Cl)nc(Nc2ccc3c4c(cccc24)C(=O)c2ccccc2-3)n1 | label 0 |
| CC(C)(C)c1ccc(-c2nc3c4ccc(-c5c6ccccc6cc6ccccc56)cc4c4cc(-c5c6ccccc6cc6ccccc56)ccc4c3n2-c2ccc(C(C)(C)C)cc2)cc1 | label 1 |
| CNC1=C2C=CC=[N+]2[B-](F)(F)n2cccc21 | label 1 |
| CN(C)c1ccc(/C=C/c2nc3ccccc3s2)cc1 | label 1 |
| Nc1ccc2c3c(cccc13)C(=O)c1ccccc1-2 | label 0 |
| O=C1NC(=O)c2c1c1c3ccccc3[nH]c1c1[nH]c3ccccc3c21 | label 1 |
| COc1ccc2cc(-c3ccc(S(C)(=O)=O)cc3)oc(=O)c2c1 | label 1 |
| COC1=[N+]2C(=C(c3ccc(C)cc3)c3ccc(OC)n3[B-]2(F)F)C=C1 | label 0 |
| CN(C)c1ccc(-c2cc3ccc([N+](=O)[O-])cc3c(=O)o2)cc1 | label 0 |
| COc1nc(Cl)nc(Nc2ccc3c4cccc5cccc(c6cccc2c63)c54)n1 | label 1 |
